TESTED SYSTEM: T1, human gastric inhibitory peptide receptor (GIPR) (human, UniProt P48546 22-466)
T1 sequence (looked up): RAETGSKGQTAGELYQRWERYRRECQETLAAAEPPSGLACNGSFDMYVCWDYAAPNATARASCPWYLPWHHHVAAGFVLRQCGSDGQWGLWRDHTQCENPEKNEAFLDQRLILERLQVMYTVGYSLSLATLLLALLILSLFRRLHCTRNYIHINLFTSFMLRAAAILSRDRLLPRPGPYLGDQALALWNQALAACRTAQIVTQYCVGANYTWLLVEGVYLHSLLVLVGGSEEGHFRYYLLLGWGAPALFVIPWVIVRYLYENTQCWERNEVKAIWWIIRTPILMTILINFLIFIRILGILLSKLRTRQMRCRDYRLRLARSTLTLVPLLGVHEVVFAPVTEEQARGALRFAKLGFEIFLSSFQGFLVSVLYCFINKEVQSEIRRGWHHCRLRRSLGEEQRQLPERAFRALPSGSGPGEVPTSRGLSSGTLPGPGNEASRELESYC
MEASUREMENT NOTES: cell-based or functional assay
ASSAY READOUT: hGIPR cAMP Rel EC50

The examples below pair each entry with its known result.
>  <BINDER>
XXEGTFTSDYSIXLDKKAQXAFIEYLIAGGPSSGAPPPS (not fully specified; D-Tyr1, Aib2, αMeL13, (2-[2-(2-Amino-ethoxy)-ethoxy]-acetyl)2-(γ-Glu)-CO-(CH2)18-CO2H on K17, Aib20, C-terminal NH2) [Example 340]

>  <OBSERVED MEASUREMENT>
0.0823 nM

$$$$
>  <BINDER>
XXEGTFTSDYSIXLDXKAQXAFVEYLIAGGPSSGAPPPS (D-Tyr1, Aib2, αMeL13, Orn16, (2-[2-(2-Amino-ethoxy)-ethoxy]-acetyl)2-(γ-Glu)-CO-(CH2)18-CO2H on K17, Aib20, C-terminal NH2) [Example 358]

>  <OBSERVED MEASUREMENT>
0.183 nM

$$$$

In the following, a different binder is considered.
Req: Fill blank: measured hGIPR cAMP Rel EC50 of the binder XXEGTFTSDYSIXLDKKAQXEFIXYLIEGGPSSGAPPPS (D-Tyr1, Aib2, αMeL13, (2-[2-(2-Amino-ethoxy)-ethoxy]-acetyl)2-(γ-Glu)-CO-(CH2)18-CO2H on K17, Aib20, D-Glu24, C-terminal NH2) [Example 353] is ____.
Resp: 0.497 nM
